Source: patent US7432260B2

Target: CDK2/cyclin E (Homo sapiens, UniProt P24941)
Assay: Kinase assay CDK2/cyclin E
Type: biochemical
Conditions: Table 2; read-out: Kinase Inhibition IC50 CDK2 cyclin E
pIC50: −log10 of the molar value.
MEASURED_ATTRIBUTE: pIC50

> print(dat)
                                   compound  measured.attribute   val
1  Cc1nc(NC(=O)CCl)sc1-c1ccnc(Nc2ccc(Cl)cc2)n1 [Compound 34]               pIC50  5.85
2  CC(=O)Nc1ccc(Nc2nccc(-c3sc(C)nc3C)n2)cc1 [Compound 45]               pIC50  6.18
3  Cc1nc(NC(=O)CCl)sc1-c1ccnc(Nc2cccc([N+](=O)[O-])c2)n1 [Compound 24]               pIC50  5.96
4  Cc1nc(C)c(-c2ccnc(Nc3ccc(NC(=O)CN4CCCC4)cc3)n2)s1 [Compound 53]               pIC50  6.28
5  Cc1nc(N)sc1-c1ccnc(Nc2ccc(S(C)(=O)=O)cc2)n1 [Compound 76]               pIC50  6.82
